- TARGET: T1, recombinant mature dimeric myostatin (human and mouse (mature sequences 100% …, UniProt O08689 268-376))
- T1 construct: also called GDF-8; mature myostatin
- T1 sequence: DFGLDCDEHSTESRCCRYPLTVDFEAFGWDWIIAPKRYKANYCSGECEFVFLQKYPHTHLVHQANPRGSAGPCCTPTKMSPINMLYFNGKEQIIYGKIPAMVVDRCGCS
- ASSAY DETAILS: ActRIIb neutralisation ELISA: inhibition of 2 nM biotinylated myostatin binding to coated ActRIIb
REPORTED METRIC: pIC50
By convention, pIC50 is the negative base-10 log of a molar concentration.

The examples below pair each entry with its known result.
H3L4 (antibody, IgG1, V domains shown, Humanised IgG1/kappa) VH: QVQLVQSGAEVKKPGASVKVSCKASGYSFTGYFMHWVRQAPGQGLEWIGNIYPYNGVSNYNQRFKARATLTTDTSTSTAYMELRSLRSDDTAVYYCARRYYYGTGPADWYYDVWGQGTLVTVSS VL: DIQMTQSPSSLSASVGDRVTITCKASQDINSYLSWFQQKPGKAPKSLIYRANRLVDGVPSKFSGSGSGQDYTLTISSLQPEDFATYYCLQSDEFPLTFGQGTKLEIKR = 8.88
H8L4 (antibody, IgG1, V domains shown, Humanised IgG1/kappa) VH: QVQLVQSGAEVKKPGASVKVSCKASGYSFTGYFMHWVRQAPGQGLEWIGNIYPYNSVSNYNQRFKARATLTVDKSTSTAYMELRSLRSDDTAVYYCARRYYYGTGPADWYYDVWGQGTLVTVSS VL: DIQMTQSPSSLSASVGDRVTITCKASQDINSYLSWFQQKPGKAPKSLIYRANRLVDGVPSKFSGSGSGQDYTLTISSLQPEDFATYYCLQSDEFPLTFGQGTKLEIKR = 10.10
H5L5 (antibody, IgG1, V domains shown, Humanised IgG1/kappa) VH: QVQLVQSGAEVKKPGASVKVSCKASGYSFTGYFMHWVRQAPGQGLEWIGNIYPYNGVSNYNQRFKARATLTVDKSTSTAYMELRSLRSDDTAVYYCARRYYYGTGPADWYYDVWGQGTLVTVSS VL: DIQMTQSPSSLSASVGDRVTITCKASQDINSYLSWFQQKPGKAPKTLIYRANRLVDGVPSKFSGSGSGTDYTLTISSLQPEDFATYYCLQSDEFPLTFGQGTKLEIKR = 9.83

Next up:
Which pIC50 is listed for H7L4 (antibody, IgG1, V domains shown, Humanised IgG1/kappa) VH: QVQLVQSGAEVKKPGASVKVSCKASGYSFTGYFMHWVRQAPGQGLEWMGNIYPYNSVSNYNQRFKARVTMTVDKSTSTAYMELRSLRSDDTAVYYCARRYYYGTGPADWYYDVWGQGTLVTVSS VL: DIQMTQSPSSLSASVGDRVTITCKASQDINSYLSWFQQKPGKAPKSLIYRANRLVDGVPSKFSGSGSGQDYTLTISSLQPEDFATYYCLQSDEFPLTFGQGTKLEIKR ? 10.42
